system: MS2 coat protein; experiment: apparent KD of MS2 coat protein; designed switch direction (-1 OFF switch, 1 ON switch): 1; higher = weaker reporter binding; details: input ligand: microRNA oligo, concentration not stated
Assign True whenever apparent KD of MS2 coat protein does not fall below 80 nM; assign False whenever it does.

Decide: apparent KD of MS2 coat protein of GUUACAUGAGGAUCACCCAUGUAUGUGUGGGAGUAAGUGUCUUAGGAUAUCUGUUAUUUAACUUAAGAGAAGGAAGAUUGUUGU [JMF's solution 43] (Eterna round: R96, puzzle: Same State NG 3) >= 80 nM?
False

hey, is apparent KD of MS2 coat protein for this one >= 80 nM? AGCUAUUAAUCAGGAUAUAGUGACAUGAGGAUCACCCAUGUAUUGAUGAUUAAAUGUGGUCACCACUAGAAGGGAUUACUAACA [SameState NG2 #48] (Eterna round: R96, puzzle: Same State NG 2)
False

Is it the case that AGUCCAGCCUGAGCUGGACAAAAGCAUGUACAUGAGGAUCACCCAUGUCAUGUACAAGCUUUUUGCUCAUCUUAAAA [Mat - hsa-mir-208a - Mod of JL - D11] (Eterna round: R96, puzzle: Sensor for hsa-mir-208a) has apparent KD of MS2 coat protein reaching or exceeding 80 nM?
False

hey, is apparent KD of MS2 coat protein for this one >= 80 nM? UGAAUAGUGAUAGGAUAUACAUGAGGAAUCCUCGUAGAAGGAUCACGACAUGAGGAUCACCCAUGUAGCCGUCAGAAGACGGCA [Mat - Same State NG 1 - JL mod - D60] (Eterna round: R96, puzzle: Same State NG 1)
True

Determine whether this sequence has apparent KD of MS2 coat protein no lower than 80 nM: GUAGCAUACCGAGGAUAUUCAUAUUAUACAUGAGGAUCACCCAUGUAAGGUCGAUUACGACCUUGGGAGAAGGCGGAAUGCUAC [Xeonanis - 20 Mod34] (Eterna round: R96, puzzle: Same State NG 2)
False

Check the entry GUUACAUGAGGAUCACCCAUGUAUGUGUGGGAGUAAGUGUCUUAGGAUAUCUAGUAUUUAAUUUUAGAGAAGGAAGAUUGUUGU [JMF's solution 69] (Eterna round: R96, puzzle: Same State NG 3) : does apparent KD of MS2 coat protein equal or exceed 80 nM?
True

Decide: is the reported value of apparent KD of MS2 coat protein for UUUAGAUCGCGAGGAUAUCGCGAGGAUCACCCGUGAGAAGGCGCAGAGCCGAGGAUCACCCGGCUGAUCCUGAGAAGGAGGUCA (Eterna round: R96, puzzle: Same State NG 1) equal to or greater than 80 nM?
True

Please check the record AAAAUAUAAAGAGAGGAUAUCCAAAGAACCACAUGAGGAUCACCCAUGUAAAGAAAGAAUAAGUGGGAGAAGGCUCAAAUAAUAA [Designing denovo 24] (Eterna round: R96, puzzle: Same State 2) and state if its apparent KD of MS2 coat protein is at or above 80 nM.
True

Is apparent KD of MS2 coat protein at least 80 nM? Consider UCGAGCGUACUUGCAGACAUGAGGAUCACCCAUGUAAAUGGGAAGGAUAUGGUACCGUUUCGGUACCAGAAGGUCCUAAGUGAU [salish99_SSNG3_r04_302] (Eterna round: R96, puzzle: Same State NG 3)
True

* * *

tested on: MS2 coat protein; assay: apparent KD of MS2 coat protein, switch OFF state (with FMN for OFF switches, without FMN for ON switches); designed switch direction (-1 OFF switch, 1 ON switch): -1; higher = weaker reporter binding; conditions: FMN input: 0 or 200 uM; Eterna round: R93 (includes R88 designs)
Rule: apparent KD of MS2 coat protein under 40 nM gives Not met, otherwise Met.

Has AGGAAACAUGAGGAUCACCCAUGUGAGGAUAUGAACGAAAAUAAAUAAAAAUAAAAGUUCAGAAGGUACAAAAA [66%, Wbt, 5] a recorded apparent KD of MS2 coat protein greater than or equal to 40 nM?
Not met

Does GAAGAACAUGAGGAUCACCCAUGUCAGGAUAUACAGAAGGGAAUAAAAUAACCUGAAAGUAGAAGGGACAAGAA [Ex 1 May 42] have a reported apparent KD of MS2 coat protein of at least 40 nM?
Met

Does the sequence AACAAGUGAGGAUAUUGGAAAAGUAAAUAAGUAAAACAAAACAAGAAGGCACAUGAGGAUCACCCAUGUAAAUA [JR_Exc004_Sub017] have recorded apparent KD of MS2 coat protein that is 40 nM or more?
Not met

Check if apparent KD of MS2 coat protein >= 40 nM (inclusive). Item: AAGAAGUGAGGAUAUACAUGAGGAUCACCCAUGUAAAAGAAAGAAGGGAAAGAGAAAAGUAGAAGGCACAAGAA [Usermaatre-setepenamun Osorkon III]
Not met

Reported apparent KD of MS2 coat protein reaches at least 40 nM for AAGAAGUCAGGAUAUGCCAGAGAUCAAGAAAGUGACGAAUAGCAGAAGGGACAUGAGGAUCACCCAUGUAAAGA [Opal 9] ?
Not met

Does apparent KD of MS2 coat protein meet or surpass 40 nM for AUAGUACAUGAGGAUCACCCAUGUCAGGAUAUUCGAAAUGAAAAAAAAAAAAAGUGAAGGAGAAGGGACUAUAA [EX1 Malc#12] ?
Not met

Determine whether measured apparent KD of MS2 coat protein meets or exceeds 40 nM for AAAAAUGGAGGAUAUACAUGAGGAUCACCCAUGUGUGACUAUACUAAGCGCUCUUCAGGUAGAAGGCCAAAAAA [Gilly Gone Silly 17 - Jieux - Exclusion 3]
Met

Check the entry AAAAAGAUAGGAUAUACGAACAUGUCAAAAGACGUGAAGGGACAUGAGGAUCACCCAUGUAGAAGGGUUAAAAA [JL Wide Open 38] : does apparent KD of MS2 coat protein equal or exceed 40 nM?
Met

Decide: is the reported value of apparent KD of MS2 coat protein for UAAAGGCGAGGAUAUACAUGAGGAUCACCCAUGUGAAUAAAUAAUAAAAUAAAAUAAAGUAGAAGGCGCAAUAA [LROPPY Exclusion 3 - v03_deltaG=1.9 break up As] equal to or greater than 40 nM?
Met

// inclusive: apparent KD of MS2 coat protein at least 40 nM? input: AGCUAGUCAGGAUAUACGAAAAUGUAAAAAGAAGUGAAGGGACAUGAGGAUCACCCAUGUAGAAGGGACUAGAA [74%, Web mod - With 4 less C's]
Met

Hi team, for AUCAUGUAAGGAUAUACAAGAAAAGAAAAGAAAGAAAAGAAGUAGAAGGUACAUGAGGAUCACCCAUGUAAGAA [EteRNA is fun!] , is the recorded apparent KD of MS2 coat protein at or above 40 nM?
Not met

Answer whether apparent KD of MS2 coat protein of AAAAAGUCAGGAUAUACAUGAGGAUCACCCAUGUGAAAGAACGAUUAACGAAAAGCAAGUAGAAGGGACAAAAA [Ruby 79] is greater than or equal to 40 nM.
Not met

Confirm if apparent KD of MS2 coat protein reported for the sequence AAAAAUCGAGGAUAUACAUGAGGAUCACCCAUGUCAAAAAAUGACUACACAAAAGAAAGUAGAAGGCGAUAAAG [Mat - Exclusion 3 - Mayanna mod - D129] is 40 nM or above.
Not met

* * *

tested on: MS2 coat protein; test: apparent KD of MS2 coat protein; designed switch direction (-1 OFF switch, 1 ON switch): -1; higher = weaker reporter binding; settings: input ligand: none
assay.readout: apparent KD of MS2 coat protein (nM)
State the answer as a number, implicitly in nM.

GET /values?readout=apparent KD of MS2 coat protein&system=MS2 coat protein&item= GUACCAGAUGUCAGGAUAUGCUUUGAGAGUUGCGAGUAGAAGGGACAUGAGGAUCACCCAUGUACCUACAGGAA [BmEX4 B.30] (Eterna round: R97, puzzle: Brourd's mod of Exclusion 4)
14

Item CUUUUGUGAGGAUAUGGUAACGAUGACAUGAGGAUCACCCAUGUAACAUGGGACUUGAGACUAGAAGGCACUAACG [JR_Ex5_Sub025] (Eterna round: R97, puzzle: Exclusion 5) with MS2 coat protein - apparent KD of MS2 coat protein?
134

Can you look up apparent KD of MS2 coat protein on MS2 coat protein for UUAAUUUAAGGGAUAGAUCAUUACAUGAGGAUCACCCAUGUUGAGGAUAUCAGCUCGUGUAGAGCUGAGAAGGCAACAAUAGGG [ExNG3/14-A3] (Eterna round: R96, puzzle: Exclusion NG 3) ?
92.3

// fetch MS2 coat protein apparent KD of MS2 coat protein for AGUACUAUCACGAAAGUGAUAGUACAAUUGAGCUUUUGAACAUGAGGAUCACCCAUGUCCUCAUAAGCUCGUCUUAA [Mat - Sensor v2 - var 2 - Mod - D171] (Eterna round: R96, puzzle: Sensor v2, turn-off variant 2)
30.5

Requested read-out apparent KD of MS2 coat protein, target or system MS2 coat protein, entry UUGAUGUGAGGAUAUAUUUUGUGUUUUCUUUAUGUUUUAUAACUUGAGGAUCACCCAAGUAGAAGGCGCUACGU [JR_Ex2_Sub065] (Eterna round: R97, puzzle: Exclusion 2)
60.6
